pEC50 values, listed per item
Tested on: STIP-1 cells
measurement.description: cells
Format: cell-based, Bester (Huso huso X Acipenser ruthenus)
measurement.parameters: Huso huso; STIP-1 cells, 20° C., 24 hours with specimen, then Alamar Blue for further 24 hours; read-out: EC50 (toxicity concentration value which effects on 50% of the cells)
Scale for pEC50: -log10 of concentration given in mol/L; no unit attached.

Take a look at these entries with their results.
| molecule | pEC50 |
| --- | --- |
| Oc1c(Cl)cccc1Cl [2,6-dichlorophenol] | 3.05 |
| Oc1c(Cl)cc(Cl)c(Cl)c1Cl [2,3,4,6-tetrachlorophenol] | 5.05 |
| Oc1cc(Cl)ccc1Cl [2,5-dichlorophenol] | 4.25 |
| Oc1c(Cl)c(Cl)c(Cl)c(Cl)c1Cl [Pentachlorophenol] | 4.05 |

Write down measured pEC50 (STIP-1 cells) for this molecule. Oc1ccc(Cl)cc1 [p-chlorophenol]
3.10

Report value only: pEC50, STIP-1 cells, Oc1cccc(Cl)c1Cl [2,3-dichlorophenol]
4.10

# assay system STIP-1 cells: give pEC50 of Oc1cc(Cl)c(Cl)cc1Cl [2,4,5-trichlorophenol]
5.15

* * *

System: STIP-1 cells
measurement.description: cells
Type: cell-based, Bester (Huso huso X Acipenser ruthenus)
measurement.parameters: STIP-1 cells, 20° C., 24 hours with specimen, then Alamar Blue for further 24 hours; read-out: EC50 (toxicity concentration value which effects on 50% of the cells)
property.measured: pEC50
pEC50 field: float, defined as -log10 of concentration (mol/L).

Use the examples below as a reference point.
| molecule | target.desc | recorded.number |
| --- | --- | --- |
| [Cl][Cu][Cl] [CuCl2.2H2O] | STIP-1 cells | 2.88 |
| O=S(=O)([O-])[O-].[Zn+2] [ZnSO4.7H2O] | STIP-1 cells | 3.40 |
| O=[N+]([O-])[O-].O=[N+]([O-])[O-].[Pb+2] [Pb(NO3)2] | STIP-1 cells | 2.48 |
| [Cl-].[Cl-].[Co+2] [CoCl2.6H2O] | STIP-1 cells | 2.66 |

Next, consider the following molecule.
Look up and report measured pEC50 for this entry: [Cl][Cd][Cl] [cadmium, cadmium chloride]
4.05

* * *

Listing of recorded EC50 by entry.
Tested on: STIP-1 cells
measurement.description: cells
Assay type: cell-based, Bester (Huso huso X Acipenser ruthenus)
measurement.parameters: Huso huso; STIP-1 cells, 20° C., 24 hours with specimen, then Alamar Blue for further 24 hours; read-out: EC50 (toxicity concentration value which effects on 50% of the cells)
Unit µM implied. Number only.

| smiles.entry | property.measured | recorded.number |
| --- | --- | --- |
| O=[N+]([O-])c1ccc(O)cc1 | EC50 | 350 |

Please give the documented EC50 of `Oc1ccc(Cl)c(Cl)c1`
30

For the molecule `Oc1ccc(Cl)cc1Cl` , report EC50.
55
